- Test system: SNB-19 CNS
- assayOverview: NCI tumour cell line growth inhibition, 48 h

- molecule: "CNc1ccc(S(=O)Nc2ccc(OC)cc2)cc1 (configuration not stated)"
  TGI: "> 100 µM"
- molecule: "NS(=O)(=O)N(c1cc(C(F)(F)F)cc(C(F)(F)F)c1)C1CCN(Cc2ccc(C(F)(F)F)cc2)CC1"
  TGI: "20.2 µM"
- molecule: "c1cc(N2CCN(c3ccc(C4=NCCN4)cc3)CC2)ccc1C1=NCCN1"
  TGI: "> 100 µM"
- molecule: "Cc1cc(I)cc(CN(C)CCN(C)C)c1O"
  TGI: "> 100 µM"
- molecule: "O=C(CC1(O)C(=O)Nc2ccc([N+](=O)[O-])cc21)c1ccc2ccccc2c1 (configuration not stated)"
  TGI: "> 100 µM"
- molecule: "COC(=O)[C@](NC(=O)OCc1ccccc1)([C@@H](C)Sc1ccc(C)cc1)C(F)(F)F"
  TGI: "> 100 µM"
- molecule: "N#CCCN(CCNc1ccccc1)C(=O)Nc1ccc(NC(=O)N(CCC#N)CCNc2ccccc2)cc1"
  TGI: "> 100 µM"
- molecule: "CC(C)(C)CC(C)(C)c1ccc(OCCSC(=N)N)cc1"
  TGI: "3.45 µM"
- molecule: "N#Cc1c(-c2ccccc2)n([O-])c2ccccc2[n+]1=O"
  TGI: "> 100 µM"
- molecule: "C=CCOC1=CC(=O)c2ccccc2C1=O"
  TGI: "29.2 µM"
- molecule: "O=C(O)CCc1nc2c(n1Cc1ccccc1)C(=O)c1ccccc1C2=O"
  TGI: "> 100 µM"
- molecule: "Cn1c([N+](=O)[O-])cnc1CN1CCN(CCO)CC1"
  TGI: "> 100 µM"
- molecule: "Cc1cc(O)c(C=NC(=S)C(N)=S)c(=O)o1"
  TGI: "> 100 µM"
- molecule: "Clc1cccc(Cl)c1C(Nc1nncs1)Nc1nncs1"
  TGI: "> 100 µM"
- molecule: "O=C1c2ccc3c4c(ccc(c24)C(=O)N1CCCNCc1ccccc1F)C(=O)N(CCCNCc1ccccc1F)C3=O"
  TGI: "0.275 µM"
- molecule: "COc1ccc(N2C(=O)C3c4[nH]c5ccc(OC)cc5c4C4CCC(C(C)C)CC4C3C2=O)cc1 (configuration not stated)"
  TGI: "99.4 µM"
- molecule: "CC1(C)C[C@H]2[C@H](O)C(CO)=C3C(=O)[C@@H](O)[C@]3(C)[C@H]2C1"
  TGI: "> 100 µM"
- molecule: "CCCCC/C=C/C(=O)CCc1ccc(O)c(OC)c1"
  TGI: "27.1 µM"
- molecule: "C=CCCC(=O)N1CCC(C(=O)OCC)C1=O (configuration not stated)"
  TGI: "> 100 µM"
- molecule: "CN(C)c1ccc(O)c2c1CC1CC3C(N(C)C)C(=O)C(C(N)=O)=C(O)C3(O)C(=O)C1=C2O (configuration not stated)"
  TGI: "> 100 µM"
- molecule: "CN(CCN(C)CCN(C)C(=O)Cc1ccc(Cl)c(Cl)c1)CCN1CCCC1"
  TGI: "> 100 µM"
- molecule: "CC(=O)OCC1OC(NC(=S)CCSc2nc3ccccc3c(=O)n2-c2ccccc2)C(OC(C)=O)C(OC(C)=O)C1OC(C)=O (configuration not stated)"
  TGI: "> 100 µM"

Where do these numbers come from? They come from PubChem BioAssay (NCI).
